// provenance: paper PMC6804443

- target.or.system: UGT2B15 (Homo sapiens)
- Sequence (P54855 24-530): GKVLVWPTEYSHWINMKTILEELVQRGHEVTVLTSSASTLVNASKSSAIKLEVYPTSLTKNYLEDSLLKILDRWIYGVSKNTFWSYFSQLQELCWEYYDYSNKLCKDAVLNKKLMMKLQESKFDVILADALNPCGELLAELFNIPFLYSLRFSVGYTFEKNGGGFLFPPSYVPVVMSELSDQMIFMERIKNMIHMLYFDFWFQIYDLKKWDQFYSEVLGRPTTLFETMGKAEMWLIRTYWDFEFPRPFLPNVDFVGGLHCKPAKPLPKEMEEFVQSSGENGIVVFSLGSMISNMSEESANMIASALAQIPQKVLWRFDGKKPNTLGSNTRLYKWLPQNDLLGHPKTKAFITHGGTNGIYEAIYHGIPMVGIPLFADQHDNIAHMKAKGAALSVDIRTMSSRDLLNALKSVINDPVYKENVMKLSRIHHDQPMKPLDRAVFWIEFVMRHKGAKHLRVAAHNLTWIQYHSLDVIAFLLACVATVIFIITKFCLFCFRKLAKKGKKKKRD
- Format: in vitro ADME
- condition.summary: human, cDNA-expressed UGT2B15
metric: inhibition at 5000 μmol/L

Sample CCN1CCN(C(=O)N[C@@H](C(=O)N[C@@H]2C(=O)N3[C@@H]2SC(C)(C)[C@@H]3C(=O)O)c2ccccc2)C(=O)C1=O — what was its inhibition at 5000 μmol/L? 60 to 88%

---

- Test system: ALDH
- Format: in vitro ADME
- condition.summary: human, pooled human liver cytosol
metric: IC50
# include the unit after the value

>  <compound>
C[C@@H](O)[C@H]1C(=O)N2C(C(=O)O)=C(SCCN=CN)C[C@H]12 [A1, imipenem]

>  <target.or.system>
ALDH

>  <IC50>
120 µM

$$$$
>  <compound>
CC(C)(O/N=C(\C(=O)N[C@@H]1C(=O)N2C(C(=O)[O-])=C(C[n+]3ccccc3)CS[C@H]12)c1csc(N)n1)C(=O)O [A7, ceftazidime]

>  <target.or.system>
ALDH

>  <IC50>
1030 µM

$$$$

API: the following record is the query input.
Sample CC1(C)S[C@@H]2[C@H](NC(=O)Cc3ccccc3)C(=O)N2[C@H]1C(=O)O [A15, penicillin G] — what was its IC50? 308 µM

---

- target.or.system: UniProt:P33261
- Sequence (P33261 whole entry): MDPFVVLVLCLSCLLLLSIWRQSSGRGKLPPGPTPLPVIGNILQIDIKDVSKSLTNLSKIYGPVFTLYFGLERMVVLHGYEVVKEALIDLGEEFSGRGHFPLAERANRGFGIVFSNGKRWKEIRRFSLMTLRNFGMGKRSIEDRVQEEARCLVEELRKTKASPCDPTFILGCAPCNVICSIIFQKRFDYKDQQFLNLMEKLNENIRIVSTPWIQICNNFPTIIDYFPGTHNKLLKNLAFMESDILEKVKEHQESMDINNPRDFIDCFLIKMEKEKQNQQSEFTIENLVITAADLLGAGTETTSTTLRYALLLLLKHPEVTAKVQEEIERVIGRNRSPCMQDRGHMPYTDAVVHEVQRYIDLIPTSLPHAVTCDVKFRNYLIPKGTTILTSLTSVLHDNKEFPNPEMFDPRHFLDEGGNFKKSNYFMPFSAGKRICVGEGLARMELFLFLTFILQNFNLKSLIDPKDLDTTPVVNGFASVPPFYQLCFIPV
- test.details: CYP2C19 inhibition by XueBiJing compounds, cDNA-expressed enzyme [CEC→CHC]
- Assay type: in vitro ADME
metric: IC50 (µM)
Numbers only, in µM.

Sample O=C(/C=C/c1ccc(O)c2c1[C@H](C(=O)O[C@H](Cc1ccc(O)c(O)c1)C(=O)O)[C@@H](c1ccc(O)c(O)c1)O2)O[C@H](Cc1ccc(O)c(O)c1)C(=O)O — what was its IC50? 19

---

Field: pIC50. Provide a value for each of the molecules that follow.
- target.or.system: OAT3 (Homo sapiens, UniProt Q8TCC7)
- Sequence (Q8TCC7 whole entry): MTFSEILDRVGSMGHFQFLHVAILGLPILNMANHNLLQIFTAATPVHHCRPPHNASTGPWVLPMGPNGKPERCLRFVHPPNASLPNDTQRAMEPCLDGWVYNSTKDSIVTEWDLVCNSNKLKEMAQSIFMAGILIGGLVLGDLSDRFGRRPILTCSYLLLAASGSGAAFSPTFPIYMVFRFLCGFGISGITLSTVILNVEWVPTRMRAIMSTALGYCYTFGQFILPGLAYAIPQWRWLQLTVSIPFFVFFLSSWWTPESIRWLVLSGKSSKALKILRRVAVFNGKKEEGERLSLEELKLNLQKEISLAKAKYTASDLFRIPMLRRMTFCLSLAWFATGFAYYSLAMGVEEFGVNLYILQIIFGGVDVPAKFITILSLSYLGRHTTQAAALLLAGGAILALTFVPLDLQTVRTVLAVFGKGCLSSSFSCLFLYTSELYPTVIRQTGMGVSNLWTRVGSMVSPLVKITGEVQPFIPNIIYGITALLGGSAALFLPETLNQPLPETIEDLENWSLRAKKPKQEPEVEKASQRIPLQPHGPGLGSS
One number for each entry, as −log10 of the molar value.

>  <smi>
O=C(O)c1ccc(O)c(O)c1

>  <meas.value>
4.55

$$$$

API: the following record is the query input.
Sample O=C(/C=C/c1ccc(O)c2c1[C@H](C(=O)O[C@H](Cc1ccc(O)c(O)c1)C(=O)O)[C@@H](c1ccc(O)c(O)c1)O2)O[C@H](Cc1ccc(O)c(O)c1)C(=O)O — what was its pIC50? 4.51

---

- target.or.system: OATP1B3 (Homo sapiens, UniProt Q9NPD5)
- Sequence (Q9NPD5 whole entry): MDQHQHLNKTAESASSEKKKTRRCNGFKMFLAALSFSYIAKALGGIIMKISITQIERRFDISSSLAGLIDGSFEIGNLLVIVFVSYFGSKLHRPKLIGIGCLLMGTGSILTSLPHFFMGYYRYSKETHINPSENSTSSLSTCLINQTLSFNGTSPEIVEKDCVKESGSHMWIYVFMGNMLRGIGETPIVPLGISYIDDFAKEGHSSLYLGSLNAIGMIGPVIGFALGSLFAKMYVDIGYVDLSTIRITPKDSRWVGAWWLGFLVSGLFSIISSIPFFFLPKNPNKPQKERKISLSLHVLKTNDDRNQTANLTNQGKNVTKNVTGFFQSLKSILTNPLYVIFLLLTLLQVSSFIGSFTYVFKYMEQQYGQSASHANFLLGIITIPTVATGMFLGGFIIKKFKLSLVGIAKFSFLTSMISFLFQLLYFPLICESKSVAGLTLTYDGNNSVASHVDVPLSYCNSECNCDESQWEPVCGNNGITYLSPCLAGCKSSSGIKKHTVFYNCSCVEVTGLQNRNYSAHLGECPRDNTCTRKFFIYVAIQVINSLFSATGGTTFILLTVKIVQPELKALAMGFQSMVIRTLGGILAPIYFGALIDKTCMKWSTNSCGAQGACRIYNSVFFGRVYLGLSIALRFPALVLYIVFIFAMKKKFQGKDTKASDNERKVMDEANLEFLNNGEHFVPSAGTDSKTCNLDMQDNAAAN
- condition.summary: IC50, OATP1B3 [X10], mean ± SD (n = 3)
metric: IC50 (µM)
Numbers only, in µM.

>  <smi>
CO[C@@]1(NC(=O)Cc2cccs2)C(=O)N2C(C(=O)O)=C(COC(N)=O)CS[C@@H]21

>  <target.or.system>
OATP1B3 (Homo sapiens, UniProt Q9NPD5)

>  <IC50 / µM>
26

$$$$
>  <smi>
COc1c(N2C[C@@H]3CCCN[C@@H]3C2)c(F)cc2c(=O)c(C(=O)O)cn(C3CC3)c12

>  <target.or.system>
OATP1B3 (Homo sapiens, UniProt Q9NPD5)

>  <IC50 / µM>
17

$$$$
>  <smi>
CC1(C)S[C@@H]2[C@H](NC(=O)Cc3ccccc3)C(=O)N2[C@H]1C(=O)O

>  <target.or.system>
OATP1B3 (Homo sapiens, UniProt Q9NPD5)

>  <IC50 / µM>
56

$$$$
>  <smi>
CC1(C)S[C@@H]2[C@H](NC(=O)[C@H](N)c3ccccc3)C(=O)N2[C@H]1C(=O)O

>  <target.or.system>
OATP1B3 (Homo sapiens, UniProt Q9NPD5)

>  <IC50 / µM>
42

$$$$
>  <smi>
CC[C@H]1OC(=O)[C@H](C)[C@@H](O[C@H]2C[C@@](C)(OC)[C@@H](O)[C@H](C)O2)[C@H](C)[C@@H](O[C@@H]2O[C@H](C)C[C@H](N(C)C)[C@H]2O)[C@](C)(O)C[C@@H](C)C(=O)[C@H](C)[C@@H](O)[C@]1(C)O

>  <target.or.system>
OATP1B3 (Homo sapiens, UniProt Q9NPD5)

>  <IC50 / µM>
3

$$$$

API: the following record is the query input.
Sample CO[C@H]1/C=C/O[C@@]2(C)Oc3c(C)c(O)c4c(O)c(c(/C=N/N5CCN(C)CC5)c(O)c4c3C2=O)NC(=O)/C(C)=C\C=C\[C@H](C)[C@H](O)[C@@H](C)[C@@H](O)[C@@H](C)[C@H](OC(C)=O)[C@@H]1C — what was its IC50? 2
